# System: K98450-129-R-PDC complex spheroid growth, percent test/control;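 also: luminescence used as a proxy for viable cell amount; spheroids exposed to agents for seven days before the viability readout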
# experimentSummary: Anticancer human tumor K98450-129-R-PDC patient-derived colon adenocarcinoma cell line growth inhibition [RAS]
# protocolConditions: second compound 3.16 µM; first compound 3.16 µM; stronger effect = lower value
# Excerpt: RAS pathway inhibitors in Combinations in Complex Spheroids A high-throughput screen of multi-cell type tumor spheroids was designed to identify active combinations of RAS pathway inhibitors and targeted small molecules. Complex spheroids include a stromal component modeled by human endothelial cells (HUVEC) and fibroblasts modeled by human mesenchymal stem cells (MSCs). […] Compounds. […] If the clinical Cmax for an agent had not been determined, the highest concentration tested was 10 microM. […]
Consider the following compounds; for each one, report its viability, T/C.

Data request: Consider the compound shown here: C[C@@H](NC(=O)c1ncnc(N)c1Cl)c1ncc(C(=O)Nc2cc(C(F)(F)F)c(Cl)cn2)s1 + C#Cc1c(F)ccc2cc(O)cc(-c3ncc4c(N5CC6CCC(C5)N6)nc(OCC56CCCN5CC(F)C6)nc4c3F)c12 What is its recorded viability, T/C?
Data returned: 114%

Data request: Using the record for CC(=O)OC12COC1CC(O)C1(C)C(=O)C(O)C3=C(C)C(OC(=O)C(O)C(NC(=O)OC(C)(C)C)c4ccccc4)CC(O)(C(OC(=O)c4ccccc4)C21)C3(C)C (stereo not drawn) + C#Cc1c(F)ccc2cc(O)cc(-c3ncc4c(N5CC6CCC(C5)N6)nc(OCC56CCCN5CC(F)C6)nc4c3F)c12 , report its viability, T/C.
Data returned: 34.2%

Data request: viability, T/C lookup needed for CC(Nc1ccc2c(c1)OCCn1cc(N3C(=O)OCC3C(F)F)nc1-2)C(N)=O (stereo not drawn) + C#Cc1c(F)ccc2cc(O)cc(-c3ncc4c(N5CC6CCC(C5)N6)nc(OCC56CCCN5CC(F)C6)nc4c3F)c12 , thanks.
Data returned: 72.5%

Data request: # input compound: NC1c2ccccc2OC12CCN(c1cnc3c(N4CCCc5ncccc54)n[nH]c3n1)CC2 (stereo not drawn) + C#Cc1c(F)ccc2cc(O)cc(-c3ncc4c(N5CC6CCC(C5)N6)nc(OCC56CCCN5CC(F)C6)nc4c3F)c12 ; wanted: its viability, T/C
Data returned: 5.66%

Data request: Requested read-out: viability, T/C. Entry: CC(C)NCC(C(=O)N1CCN(c2ncnc3c2C(C)CC3O)CC1)c1ccc(Cl)cc1 (stereo not drawn) + C#Cc1c(F)ccc2cc(O)cc(-c3ncc4c(N5CC6CCC(C5)N6)nc(OCC56CCCN5CC(F)C6)nc4c3F)c12
Data returned: 98.7%

Data request: So what's the measured viability, T/C for this one? CC1(O)CCCC1n1c(=O)c(C(F)F)cc2cnc(NC3CCN(S(C)(=O)=O)CC3)nc21 (stereo not drawn) + C#Cc1c(F)ccc2cc(O)cc(-c3ncc4c(N5CC6CCC(C5)N6)nc(OCC56CCCN5CC(F)C6)nc4c3F)c12
Data returned: 63.8%

Data request: Need viability, T/C of Cc1nc(N2CCC3(CC2)COC(C)C3N)c(CO)nc1Sc1ccnc(N)c1Cl (stereo not drawn) + C#Cc1c(F)ccc2cc(O)cc(-c3ncc4c(N5CC6CCC(C5)N6)nc(OCC56CCCN5CC(F)C6)nc4c3F)c12 , thanks.
Data returned: 17.1%

Data request: Reported viability, T/C for CCC(CC)c1cc(NC2CCC(N)C2)n2nccc2n1 (stereo not drawn) + C#Cc1c(F)ccc2cc(O)cc(-c3ncc4c(N5CC6CCC(C5)N6)nc(OCC56CCCN5CC(F)C6)nc4c3F)c12 : what is it?
Data returned: 79.1%
